system: Klebsiella pneumoniae; test: Antibacterial activity against Klebsiella pneumoniae 05-4 after 18 to 24 hrs; type: functional
ENDPOINT_LABEL: MIC

>>> result("CNC1CN(c2nc3c(cc2F)c(=O)c(C(=O)O)cn3C2CC2)CC/C1=N\\OCc1ccccc1 (centres undefined)")
"16 µg/mL"
>>> result("CNC1CCN(c2nc3c(cc2F)c(=O)c(C(=O)O)cn3C2CC2)C/C1=N\\OCc1ccccc1 (centres undefined)")
"4 µg/mL"
>>> result("CCO/N=C1\\CCN(c2nc3c(cc2F)c(=O)c(C(=O)O)cn3C2CC2)CC1N(C)C (centres undefined)")
"2 µg/mL"
>>> result("CCO/N=C1\\CCN(c2nc3c(cc2F)c(=O)c(C(=O)O)cn3C2CC2)CC1NC (centres undefined)")
"16 µg/mL"
>>> result("CCO/N=C1\\CN(c2nc3c(cc2F)c(=O)c(C(=O)O)cn3C2CC2)CCC1NC (centres undefined)")
"1 µg/mL"
>>> result("CO/N=C1\\CCN(c2nc3c(cc2F)c(=O)c(C(=O)O)cn3C2CC2)CC1NC1CC1 (centres undefined)")
"16 µg/mL"
>>> result("CCCO/N=C1\\CCN(c2nc3c(cc2F)c(=O)c(C(=O)O)cn3C2CC2)CC1N(C)C (centres undefined)")
"16 µg/mL"
>>> result("CN(C)C1CN(c2nc3c(cc2F)c(=O)c(C(=O)O)cn3C2CC2)CC/C1=N\\OCc1ccccc1 (centres undefined)")
"16 µg/mL"
>>> result("CNC1CN(c2nc3c(cc2F)c(=O)c(C(=O)O)cn3C2CC2)CC/C1=N\\OC (centres undefined)")
"2 µg/mL"

* * *

tested on: Staphylococcus aureus; assay: Antibacterial activity against methicillin-sensitive Staphylococcus aureus 04-4 after 18 to 24 hrs; assay type: functional
Field: label. Allowed values: true (MIC < 0.1 µg/mL) or false (MIC >= 0.1 µg/mL).

>>> assigned_category("CO/N=C1\\CN(c2nc3c(cc2F)c(=O)c(C(=O)O)cn3C2CC2)CCC1NC1CC1 (stereo not drawn)")
"true"
>>> assigned_category("CNC1CN(c2nc3c(cc2F)c(=O)c(C(=O)O)cn3C2CC2)CC/C1=N\\OCc1ccccc1 (stereo not drawn)")
"false"
>>> assigned_category("CNC1CCN(c2nc3c(cc2F)c(=O)c(C(=O)O)cn3C2CC2)C/C1=N\\OC (stereo not drawn)")
"true"
>>> assigned_category("CNC1CN(c2nc3c(cc2F)c(=O)c(C(=O)O)cn3C2CC2)CC/C1=N\\OC (stereo not drawn)")
"true"
>>> assigned_category("CNC1CCN(c2nc3c(cc2F)c(=O)c(C(=O)O)cn3C2CC2)C/C1=N\\OCc1ccccc1 (stereo not drawn)")
"true"
>>> assigned_category("CCO/N=C1\\CN(c2nc3c(cc2F)c(=O)c(C(=O)O)cn3C2CC2)CCC1NC (stereo not drawn)")
"true"
>>> assigned_category("CO/N=C1\\CN(c2nc3c(cc2F)c(=O)c(C(=O)O)cn3C2CC2)CC1CN (stereo not drawn) [GEMIFLOXACIN]")
"true"
>>> assigned_category("CO/N=C1\\CCN(c2nc3c(cc2F)c(=O)c(C(=O)O)cn3C2CC2)CC1N (stereo not drawn)")
"false"
>>> assigned_category("CCO/N=C1\\CCN(c2nc3c(cc2F)c(=O)c(C(=O)O)cn3C2CC2)CC1NC (stereo not drawn)")
"true"
>>> assigned_category("CCCO/N=C1\\CCN(c2nc3c(cc2F)c(=O)c(C(=O)O)cn3C2CC2)CC1N(C)C (stereo not drawn)")
"false"
>>> assigned_category("CO/N=C1\\CCN(c2nc3c(cc2F)c(=O)c(C(=O)O)cn3C2CC2)CC1NC1CC1 (stereo not drawn)")
"true"
>>> assigned_category("CCCO/N=C1\\CCN(c2nc3c(cc2F)c(=O)c(C(=O)O)cn3C2CC2)CC1NC (stereo not drawn)")
"true"
>>> assigned_category("CO/N=C1\\CN(c2nc3c(cc2F)c(=O)c(C(=O)O)cn3C2CC2)CCC1N (stereo not drawn)")
"false"

* * *

test system: Enterococcus faecalis; test: Antibacterial activity against Enterococcus faecalis 03-4 after 18 to 24 hrs; type: functional
Entries and their measured MIC follow.
ENDPOINT_LABEL: MIC (µg/mL)

>>> quantitative_result("CO/N=C1\\CN(c2nc3c(cc2F)c(=O)c(C(=O)O)cn3C2CC2)CCC1N (centres undefined)")
2
>>> quantitative_result("CO/N=C1\\CCN(c2nc3c(cc2F)c(=O)c(C(=O)O)cn3C2CC2)CC1N(C)C (centres undefined)")
0.015
>>> quantitative_result("CO/N=C1\\CCN(c2nc3c(cc2F)c(=O)c(C(=O)O)cn3C2CC2)CC1NC1CC1 (centres undefined)")
0.004
>>> quantitative_result("CO/N=C1\\CCN(c2nc3c(cc2F)c(=O)c(C(=O)O)cn3C2CC2)CC1N (centres undefined)")
8

* * *

system: Staphylococcus aureus; assay: Antibacterial activity against methicillin-sensitive Staphylococcus aureus 04-4 after 18 to 24 hrs; type: functional
Entries and their measured MIC follow.
ENDPOINT_LABEL: MIC (µg/mL)

>>> quantitative_result("CCO/N=C1\\CCN(c2nc3c(cc2F)c(=O)c(C(=O)O)cn3C2CC2)CC1N(C)C (stereo not given)")
0.015
>>> quantitative_result("CC(=O)NC[C@H]1CN(c2ccc(N3CCOCC3)c(F)c2)C(=O)O1")
0.5
>>> quantitative_result("CN(C)C1CN(c2nc3c(cc2F)c(=O)c(C(=O)O)cn3C2CC2)CC/C1=N\\OCc1ccccc1 (stereo not given)")
0.015
>>> quantitative_result("CCCO/N=C1\\CN(c2nc3c(cc2F)c(=O)c(C(=O)O)cn3C2CC2)CCC1NC (stereo not given)")
0.06
>>> quantitative_result("CO/N=C1\\CCN(c2nc3c(cc2F)c(=O)c(C(=O)O)cn3C2CC2)CC1N(C)C (stereo not given)")
0.004
